test: chemical genetic growth profiling, strain panel (AID 1159580);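 note: tested at 20 µM; growth read once vehicle control cultures reached saturation at 30 °C; 1 = growth at the plate median or of vehicle wells; lower values mean less growth of the strain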; conditions: S. cerevisiae deletion strains, growth OD, locus YPR141C, strain kar3, active compounds read low
Among all 5,500 compounds or so, about 2,000 (36%) were called active. Another 18% or so got no clear call; they are omitted. The list shows a part of the results.
value_type: normalized growth
// response body must contain only the number

In the examples that follow, each entry is paired with its recorded normalized growth.
1) CC[C@@H](CO)NCCN[C@@H](CC)CO; 1.01
2) O=C1C[C@@H](c2ccccc2)Oc2cc(O)cc(O)c21; 0.955
3) CC1(O)/C=C/C=C(\CO)C2CC(C)(C)C2(O)CC1 (stereo unspecified); 1
4) CC(=C(CCOP(=O)(O)O)SC(=O)c1ccccc1)N(C=O)Cc1cnc(C)nc1N; 1.02
5) C=C(C)/C=C1/C=CC(=O)C(C)=C1; 0.0832
6) C[C@@H]1O[C@@H](O[C@H]2[C@@H](Oc3cc(O)c4c(c3)O[C@H](c3ccc(O)cc3)CC4=O)O[C@H](CO)[C@@H](O)[C@@H]2O)[C@H](O)[C@H](O)[C@H]1O; 0.992
7) COc1ccc2c(c1)C1(C)CCC(=O)CC1CC2 (stereo unspecified); 0.96
8) COc1cccc2c1CCC1CC(=O)CCC21C (stereo unspecified); 0.965
9) COc1ccc(C2CC(=O)c3ccc(OC)cc3O2)cc1 (stereo unspecified); 0.975
10) COc1cc(OC)c2c(c1)OC(c1ccccc1)CC2=O (stereo unspecified); 1.01

Query: normalized growth; subject: COc1ccc2c(c1)[C@@]1(C)CCC(=O)C[C@H]1CC2
0.976

====

In this section we review reported normalized growth values for a set of molecules.
test: chemical genetic growth profiling, strain panel (AID 1159580);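 note: tested at 20 µM; growth read once vehicle control cultures reached saturation at 30 °C; 1 = growth at the plate median or of vehicle wells; lower values mean less growth of the strain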; conditions: S. cerevisiae deletion strains, growth OD, locus YKL190W, strain CNB1, active compounds read low
Among all 5,500 compounds or so, about 2,000 (36%) were called active. Another 18% or so got no clear call; they are omitted. The list shows a part of the results.
// response body must contain only the number

1. COC1C(O)C(O)C(O)[C@@H](O)C1O (stereo partly drawn); 1.01
2. CC(=O)O[C@H]1C(=O)[C@@]2(C)C([C@H](OC(=O)c3ccccc3)[C@]3(O)C[C@H](OC(=O)[C@H](O)[C@@H](NC(=O)c4ccccc4)c4ccccc4)C(C)=C1C3(C)C)[C@]1(OC(C)=O)CO[C@@H]1C[C@@H]2O (stereo partly drawn); 1.02
3. C/C=C(/C(=C/C)c1ccc(O)cc1)c1ccc(O)cc1; 0.976
4. C1CCc2nnnn2CC1; 1
5. O=C(O)c1cc(=O)c2cc(Cl)ccc2[nH]1; 1

Query: normalized growth; subject: CN1Cc2c(ccc3c2OCO3)C2C(O)Cc3cc4c(cc3C21)OCO4 (stereo not drawn)
0.988

Query: normalized growth; subject: CCC(C(=O)O)c1ccccc1 (stereo not drawn)
1.01

Query: normalized growth; subject: CC(C)[N+](C)(CCOC(=O)C1c2ccccc2Oc2ccccc21)C(C)C
1.02

Query: normalized growth; subject: CC(=O)O[C@@](C)(CCC=C(C)C)C1CC=C(C)CC1 (stereo partly drawn)
1.01

Query: normalized growth; subject: NC(N)=NOCC[C@H](N)C(=O)O
0.995

Query: normalized growth; subject: Cc1c(Cl)cccc1SCC(=O)O
1.01

Query: normalized growth; subject: C[N+](C)(C)CCOP(=O)([O-])OP(=O)(O)OC[C@H]1OC(n2ccc(N)nc2=O)[C@H](O)[C@@H]1O (stereo partly drawn)
0.999

Query: normalized growth; subject: COC(=O)C1[C@H]2C[C@H]3c4[nH]c5ccccc5c4CCN3C[C@@H]2CC[C@@H]1O (stereo partly drawn)
1.02

Query: normalized growth; subject: CCCCCCCc1c(O)c2ccccc2[nH]c1=O
1.01

Query: normalized growth; subject: CN(C)/C=C1\C(=O)c2ccccc2N(C)S1(=O)=O
1.01

Query: normalized growth; subject: O=C(O)CSCC(=O)N1CCc2c([nH]c3ccccc23)C1C(F)(F)F (stereo not drawn)
1

Query: normalized growth; subject: Oc1c(Cl)c(Cl)c(Cl)c(Cl)c1Cl
0.811

Query: normalized growth; subject: CCc1nc(N)nc(N)c1-c1ccc(Cl)cc1
1.01

Query: normalized growth; subject: O=C(O)c1cc(=O)c2ccc(Cl)cc2[nH]1
1.01

Origin of the recorded values: PubChem BioAssay AID1159580
